Values compiled from patent US20260250420A1.

# measurementTarget: T1, human PTK7 protein (extracellular sequence of human PTK7 with C-terminal 6×His tag) (human, UniProt Q13308 31-704)
# T1 construct: extracellular domain; Expressed transiently in HEK293 cells; also called human PTK7-His; human PTK7-His protein
# T1 sequence: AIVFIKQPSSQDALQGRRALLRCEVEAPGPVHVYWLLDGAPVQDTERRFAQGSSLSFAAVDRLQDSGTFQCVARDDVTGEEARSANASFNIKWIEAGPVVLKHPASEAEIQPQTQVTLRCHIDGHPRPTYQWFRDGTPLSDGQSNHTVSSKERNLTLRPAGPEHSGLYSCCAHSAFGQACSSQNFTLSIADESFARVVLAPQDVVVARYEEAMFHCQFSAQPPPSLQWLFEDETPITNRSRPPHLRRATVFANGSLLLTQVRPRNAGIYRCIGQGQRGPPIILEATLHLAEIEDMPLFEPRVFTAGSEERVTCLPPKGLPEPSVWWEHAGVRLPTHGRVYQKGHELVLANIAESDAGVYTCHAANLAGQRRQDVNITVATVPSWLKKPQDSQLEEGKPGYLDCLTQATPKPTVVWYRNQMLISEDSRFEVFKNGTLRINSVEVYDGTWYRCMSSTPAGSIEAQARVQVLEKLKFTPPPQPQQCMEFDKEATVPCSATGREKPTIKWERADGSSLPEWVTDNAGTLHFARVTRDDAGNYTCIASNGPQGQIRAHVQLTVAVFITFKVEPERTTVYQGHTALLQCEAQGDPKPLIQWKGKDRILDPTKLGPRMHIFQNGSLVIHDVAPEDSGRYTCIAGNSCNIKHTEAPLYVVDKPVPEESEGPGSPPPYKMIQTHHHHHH
# measurementProtocol: ELISA, coated human PTK7 protein 1 µg/ml
metricName: EC50 (µg/mL)
Could you give me the number in µg/mL? Just the number is fine.

Problem: Given 8H3 (anti-human PTK7 murine antibody) (antibody, V domains shown, Murine antibody purified from hybridoma supernatant on Protein A) VH: EVKLVESGGGLVQPGGSLSLSCAASGFTFTDYYMSWVRQPPGKALEWLALIRNKANGYTTEYSASVKGRFTISRDNSQSILYLQMNALRAEDSATYYCARDSFEVYWGQGTLVTVSA VL: DIVLTQSHKFMSTSVGDRVNITCKASQDVGTAVAWYQQKPGQSPKLLIYWASTRHTGVPDRFTGSGSGTDFTLTIRNVQSEDLADYFCQQFSSFPFTFGGGTKLEIK , respond with its EC50.
Solution: 0.0113
